# System: CEM cells
# protocol notes: Trypan blue cell viability assay, DEM-treated cells
# Assay type: cell-based, human
# assay context: overnight incubation, then 5 mM DEM, 3 h
measurement type: maintaining cell viability (trypan blue exclusion)

Cc1c(C)c2c(c(C)c1O)CCC(C)(C(=O)O)O2 (stereo not shown) [trolox, reference compound] :: quite ineffective
Cc1nc2c(c(C)c1O)CCN2C [compound C redox core, reference compound] :: quite ineffective

----------
# System: NADH oxidase, bovine heart mitochondrial complex (I, III, IV)
# protocol notes: NADH oxidase inhibition assay, submitochondrial particles
# Format: biochemical
# assay context: 2.5 μM, percentage of control
The label is true (1) for NADH oxidase activity (%) below 50% and false (0) for NADH oxidase activity (%) equal to or exceeding 50%.

// known answers, use as guide
CCCCCCCCCCCCCCCCc1nc(N(C)C)nc(C)c1O [drawing 139] :: false (0)
COc1nc(N(C)C)nc(CCCCCCCCCCO)c1O [drawing 138] :: true (1)
CCCCCCCCCCCCCCCCc1nc(N(C)C)nc(OC)c1O [drawing 140] :: false (0)
Cc1nc(N(C)C)nc(CCCCCCCCCCO)c1O [drawing 134] :: true (1)

Query compound follows.
Strictly below 50%: is that where NADH oxidase activity (%) of Cc1cc(N(C)C)nc(CCCCCCCCCCO)c1O [drawing 137] sits?
false (0)

----------
We begin with a simple list: items and their reported Total ATP concentration (% of control).
# Tested on: CoQ10 deficient lymphocyte cell line
# protocol notes: Total intracellular ATP concentration assay (luciferin-luciferase)
# Format: cell-based, human
# assay context: 10 μM, 48 h, glucose free media with galactose

Past entries and their recorded results:
Cc1nc(N(C)C)nc(CCCCCCCCCCO)c1O [drawing 116] :: 87.9 ± 4.3 % of control
CCCCCCCCCCCCCCCCc1nc(N(C)C)nc(C)c1O [drawing 120] :: 106.9 ± 2.7 % of control

Suppose we examine the compound CCCCCCCCCCc1nc(N(C)C)nc(C)c1O [drawing 119] ; what Total ATP concentration (% of control) value has been reported?
98.7 ± 1.1 % of control

Item: CCCCCc1nc(N(C)C)nc(C)c1O [drawing 118]
111.1 ± 1.5 % of control

Now try CCCCCCCCCCCCCCCCc1nc(N(C)C)nc(OC)c1O [drawing 122] .
116.4 ± 0.5 % of control

Moving on to CCCCCCCCCCc1nc(N(C)C)nc(OC)c1O [drawing 121]
110.5 ± 6.5 % of control

Could you do the same for COc1nc(N(C)C)nc(CCCCCCCCCCO)c1O [drawing 117] , please?
96.8 ± 4.0 % of control

----------
# Tested on: NADH oxidase, bovine heart mitochondrial complex (I, III, IV)
# protocol notes: NADH oxidase inhibition assay, submitochondrial particles
# Format: biochemical
# assay context: 5 μM, percentage of control
measurement type: NADH oxidase activity (%)
Response body: numeric value in %, unit text excluded.

As a guide, the following entries are already answered.
CCCCCCCCCCCCCCCCc1nc(N(C)C)nc(C)c1O [drawing 139] :: 62
Cc1cc(N(C)C)nc(CCCCCCCCCCO)c1O [drawing 137] :: 38
CCCCCCCCCCCCCCCCc1nc(N(C)C)nc(OC)c1O [drawing 140] :: 70
COc1nc(N(C)C)nc(CCCCCCCCCCO)c1O [drawing 138] :: 50
CCCCCCCCCCc1nc(N(C)C)nc(OC)c1O [drawing 141] :: 38

Query NADH oxidase activity (%) on NADH oxidase, bovine heart mitochondrial complex (I, III, IV) for Cc1nc(N(C)C)nc(CCCCCCCCCCO)c1O [drawing 134]
22

----------
# tested target: NADH oxidase, bovine heart mitochondrial complex (I, III, IV)
# protocol notes: NADH oxidase inhibition assay, submitochondrial particles
# assay context: beef heart SMP
# Method: Beef heart mitochondria were obtained by a large-scale procedure. […] Inhibitory effects of compounds on bovine heart mitochondrial complex (I, III, IV) were evaluated. […] The enzymatic activities were assayed at 30° C. and monitored spectrophotometrically with a Beckman Coulter DU-530 (340 nm, c=6.22 mM^−1 cm^−1). NADH oxidase activity was determined in a reaction medium (2.5 mL) containing 50 mM Hepes, pH 7.5, containing 5 mM MgCl2. […] The activity is expressed as percentage of control.
measurement type: pIC50
Note on units: pIC50 is unitless, being -log10 of a concentration expressed in mol/L.

Cc1nc(N(C)C)nc(CCCCCCCCCCO)c1O [drawing 134] :: 5.65
CCCCCCCCCCc1nc(N(C)C)nc(C)c1O [drawing 133] :: 6.08

// switching to the query compound
Name the recorded pIC50 for CCCCCCCCCCc1nc(N2C(C)CCC2C)nc(C)c1O (stereo not drawn) .
4.97

----------
# Tested on: NADH oxidase, bovine heart mitochondrial complex (I, III, IV)
# protocol notes: NADH oxidase inhibition assay, submitochondrial particles
# Format: biochemical
# assay context: 10 μM, percentage of control
measurement type: NADH oxidase activity (%)
Include the unit right after the number.

CCCCCCCCCCCCCCCCc1nc(N(C)C)nc(OC)c1O [drawing 140] :: 70%

Kindly review the next compound as well.
Tell me reported NADH oxidase activity (%) for Cc1nc2c(c(CC[C@](C)(O)CCC[C@H](C)CCC[C@H](C)CCCC(C)C)c1O)CCN2C [drawing 136] , tested with NADH oxidase, bovine heart mitochondrial complex (I, III, IV).
15%

----------
# Tested on: cultured FRDA cells
# protocol notes: Cytoprotection of cultured FRDA cells depleted of glutathione
# Type: cell-based
# assay context: 0.1 μM, pretreated then depleted of glutathione; read-out: Viable Cells (%)
// boundary case: viability at 0.1 µM equal to 50% maps to N; strictly smaller maps to Y

Recorded results for 8 compounds are shown here.
CCCCCCCCCCc1nc(N(C)C)nc(OC)c1O [drawing 130] :: Y
Cc1cc(N(C)C)nc(CCCCCCCCCCO)c1O [drawing 124] :: N
CCCCCc1nc(N(C)C)nc(C)c1O [drawing 127] :: Y
CCCCCCCCCCCCCCCCc1nc(N(C)C)nc(OC)c1O [drawing 131] :: Y
COc1cc(N(C)C)nc(CCCCCCCCCCO)c1O :: Y
Cc1nc(N(C)C)nc(CCCCCCCCCCO)c1O [drawing 123] :: N
CCCCCCCCCCc1nc(N(C)C)nc(C)c1O [drawing 128] :: N
COc1nc(N(C)C)nc(CCCCCCCCCCO)c1O [drawing 125] :: N

Decide: viability at 0.1 µM of CCCCCCCCCCCCCCCCc1nc(N(C)C)nc(C)c1O [drawing 129] strictly below 50%?
N

----------
Reported melting point values follow for various compounds

Worked cases, answers included:
Cc1nc(N)nc(CCCCCCCCCCO)c1O :: 103 to 104 °C
CCCCCCCCCCc1nc(N(C)C)nc(C)c1O :: 71 to 72 °C
CCCCCc1nc(N(C)C)nc(C)c1O :: 61 to 62 °C
CCCCCCCCCCCCCCCCc1nc(N(C)C)nc(C)c1O :: 86 to 87 °C

Fill in the blank: the reported melting point of COc1cc(C)c(O)c(CCCCCCCCCCO)n1 is ____.
80 to 81 °C

----------
# System: NADH oxidase, bovine heart mitochondrial complex (I, III, IV)
# protocol notes: NADH oxidase inhibition assay, submitochondrial particles
# Assay type: biochemical
# assay context: 1 μM, percentage of control
measurement type: NADH oxidase activity (%)
Unit % implied. Number only.

Requested read-out NADH oxidase activity (%), target or system NADH oxidase, bovine heart mitochondrial complex (I, III, IV), entry CCCCCCCCCCCCCCCCc1nc(N(C)C)nc(OC)c1O [drawing 140]
90

Now this one: CCCCCCCCCCc1nc(N(C)C)nc(OC)c1O [drawing 141]
38

Note, next up: CCCCCCCCCCc1nc(N(C)C)nc(C)c1O [drawing 133]
40

Now give it for CCCCCCCCCCCCCCCCc1nc(N(C)C)nc(C)c1O [drawing 139] too.
62

Now the same for Cc1cc(N(C)C)nc(CCCCCCCCCCO)c1O [drawing 137]
90

----------
# System: CoQ10 deficient lymphocyte cell line
# protocol notes: Total intracellular ATP concentration assay (luciferin-luciferase)
# Assay type: cell-based, human
# assay context: 25 μM, 48 h, glucose free media with galactose
# Total ATP concentration (% of control) per record follows

CCCCCc1nc(N(C)C)nc(C)c1O [drawing 118] :: 105.6 ± 2.4 % of control
Cc1nc(N(C)C)nc(CCCCCCCCCCO)c1O [drawing 116] :: 46.1 ± 1.2 % of control
CCCCCCCCCCCCCCCCc1nc(N(C)C)nc(OC)c1O [drawing 122] :: 113.0 ± 1.6 % of control

# returns recorded Total ATP concentration (% of control) (system: CoQ10 deficient lymphocyte cell line) for CCCCCCCCCCc1nc(N(C)C)nc(C)c1O [drawing 119]
75.3 ± 1.8 % of control

Next: CCCCCCCCCCCCCCCCc1nc(N(C)C)nc(C)c1O [drawing 120]
101.6 ± 3.1 % of control

How about CCCCCCCCCCc1nc(N(C)C)nc(OC)c1O [drawing 121] ?
68.3 ± 2.7 % of control

Item: COc1nc(N(C)C)nc(CCCCCCCCCCO)c1O [drawing 117]
48.7 ± 0.8 % of control
